Origin of measurements: the supplement of paper PMC7366291

- Test system: Danio rerio Tg(wt1b:EGFP) embryo, pronephros
- Experiment: glomerular separation, fold change vs DMSO control; higher = glomeruli further apart (abnormal)
- Assay context: 25 µM; exposure: 24-48 hpf
Structures can show the parent of a compound that is named as a salt.
Can you tell me glomerular separation for the items I'm about to list?

### Prompt Danio rerio Tg(wt1b:EGFP) embryo, pronephros / glomerular separation / O=C1c2cccc3c2[C@H](CCC3)CN1[C@@H]1CN2CCC1CC2 [Palonosetron hydrochloride] : value?
### Response 1.08

### Prompt Consider next the molecule O=C(O)c1cn(C2CC2)c2cc(N3CCNCC3)c(F)cc2c1=O [Ciprofloxacin hydrochloride monohydrate] in the same way.
### Response 0.914

### Prompt What would you report for CCOC(=O)C1=C(C)NC(C)=C(C(=O)OC)C1c1cccc([N+](=O)[O-])c1 (stereo unspecified) ?
### Response 5.49

### Prompt Same thing, different molecule: CC(CCc1ccccc1)NCC(O)c1ccc(O)c(C(N)=O)c1 (stereo unspecified) [Labetalol hydrochloride]
### Response 1.04

### Prompt Also need CN(C)CCCN1c2ccccc2CCc2ccccc21 [Imipramine hydrochloride] , thanks.
### Response 0.946

### Prompt For Cc1onc(-c2c(F)cccc2Cl)c1C(=O)N[C@@H]1C(=O)N2[C@@H]1SC(C)(C)[C@@H]2C(=O)O [Flucloxacillin sodium] then?
### Response 1.05

### Prompt Could you do the same for Cc1nnc(SCC2=C(C(=O)O)N3C(=O)[C@@H](NC(=O)Cn4cnnn4)[C@H]3SC2)s1 [Cefazolin sodium salt] , please?
### Response 0.771

### Prompt // same read-out, input: O=C(O)CNC(=O)C(CS)Cc1ccccc1 (stereo unspecified)
### Response 0.84

### Prompt Please give the result for CN1C(C(=O)Nc2ccccn2)=C(O)c2sccc2S1(=O)=O too.
### Response 0.97

### Prompt Record: CCOc1ccc2nc(S(N)(=O)=O)sc2c1 [Ethoxzolamide]
### Response 2.05

### Prompt Another molecule to check: NCc1ccc(S(N)(=O)=O)cc1 [Mafenide hydrochloride]
### Response 0.887

### Prompt And C#CCN[C@@H]1CCc2ccccc21 ?
### Response 1.13

### Prompt Then CN(C)CCc1c[nH]c2ccc(Cn3cncn3)cc12 [Rizatriptan benzoate] ?
### Response 0.941

### Prompt Next molecule: CC(COc1ccccc1)NC(C)C(O)c1ccc(O)cc1 (stereo unspecified) [Isoxsuprine hydrochloride]
### Response 1.07

### Prompt Now consider NC(=O)c1ccc[n+]([C@@H]2O[C@H](COP(=O)([O-])OP(=O)(O)OC[C@H]3O[C@@H](n4cnc5c(N)ncnc54)[C@H](O)[C@@H]3O)[C@@H](O)[C@H]2O)c1 [Nadide] .
### Response 0.955

### Prompt Try this molecule next: CNCCC(Oc1ccc(C(F)(F)F)cc1)c1ccccc1 (stereo unspecified) [Fluoxetine hydrochloride]
### Response 1.23

### Prompt Thanks! And CCN(CC)Cc1cc(Nc2ccnc3cc(Cl)ccc23)ccc1O [Amodiaquin dihydrochloride dihydrate] ?
### Response 0.602

### Prompt Also, COc1nc(C)nc(Cl)c1NC1=NCCN1 please.
### Response 1.07

### Prompt Let us now turn to CCCCC1C(=O)N(c2ccccc2)N(c2ccccc2)C1=O
### Response 5.01

### Prompt Also need CCN(CC)CC#CCOC(=O)C(O)(c1ccccc1)C1CCCCC1 (stereo unspecified) [Oxybutynin chloride] , thanks.
### Response 1.32

### Prompt # repeat for CC(=O)Oc1ccc(C(c2ccc(OC(C)=O)cc2)c2ccccn2)cc1
### Response 0.927

### Prompt Another molecule: O=S(=O)(O)c1cc(O)ccc1O [Ethamsylate]
### Response 1.12

### Prompt Quick one: CCN(CC)CCOCCOC(=O)C1(c2ccccc2)CCCC1 [Carbetapentane citrate]
### Response 0.953

### Prompt And what about the molecule CN(C)CCOC(=O)COc1ccc(Cl)cc1 [Meclofenoxate hydrochloride] ?
### Response 1.19

### Prompt Another molecule to check: O=C(NCCO[N+](=O)[O-])c1cccnc1
### Response 1.05

### Prompt Please give the result for CCCCC(=O)O[C@H]1CC[C@H]2[C@@H]3CCc4cc(O)ccc4[C@H]3CC[C@]12C [Estradiol Valerate] too.
### Response 1.02

### Prompt Moving on to the next molecule: Nc1ccn([C@@H]2CS[C@H](CO)O2)c(=O)n1
### Response 0.982

### Prompt What about CCC1NC(=O)c2cc(S(N)(=O)=O)c(Cl)cc2N1 (stereo unspecified) ?
### Response 0.951

### Prompt Another molecule to check: COc1ccc2[nH]c([S+]([O-])Cc3ncc(C)c(OC)c3C)nc2c1 (stereo unspecified)
### Response 1.15

### Prompt Again, but for C[C@]1(Cn2ccnn2)[C@H](C(=O)O)N2C(=O)C[C@H]2S1(=O)=O
### Response 0.923

### Prompt CC(C)(Sc1cc(C(C)(C)C)c(O)c(C(C)(C)C)c1)Sc1cc(C(C)(C)C)c(O)c(C(C)(C)C)c1 ?
### Response 0.815

### Prompt Query CN1CCN2c3ncccc3Cc3ccccc3C2C1 (stereo unspecified) next
### Response 0.964

### Prompt Entry to check: CCCN(CCC)S(=O)(=O)c1ccc(C(=O)O)cc1
### Response 1.41

### Prompt What do we get for CCCNC(=O)NS(=O)(=O)c1ccc(Cl)cc1 [Chlorpropamide] ?
### Response 1.09

### Prompt One more molecule: OC(CCCN1CCCCC1)(c1ccccc1)c1ccccc1 [Diphenidol hydrochloride]
### Response 0.854

### Prompt Okay, and O=C(O)c1cccnc1 ?
### Response 0.706
